Data credit: patent US20190022039A1

- Test target: human GLP-1R (Homo sapiens, UniProt P43220)
- Sequence (P43220 24-463): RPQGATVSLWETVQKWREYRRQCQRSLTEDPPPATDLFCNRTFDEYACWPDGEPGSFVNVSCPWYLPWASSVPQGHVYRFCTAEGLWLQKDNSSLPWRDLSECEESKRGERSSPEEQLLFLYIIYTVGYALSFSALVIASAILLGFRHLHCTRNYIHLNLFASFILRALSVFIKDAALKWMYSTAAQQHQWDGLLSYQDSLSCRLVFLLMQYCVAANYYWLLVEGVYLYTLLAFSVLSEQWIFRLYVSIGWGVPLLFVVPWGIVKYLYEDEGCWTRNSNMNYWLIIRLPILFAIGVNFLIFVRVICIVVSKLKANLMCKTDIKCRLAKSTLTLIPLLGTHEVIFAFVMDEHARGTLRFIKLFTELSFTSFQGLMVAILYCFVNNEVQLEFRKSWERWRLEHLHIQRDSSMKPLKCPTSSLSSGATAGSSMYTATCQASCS
- Experiment: GLP-1 receptor in vitro calcium assay (intracellular free calcium concentration change induced via GLP-1 receptor)
- Measurement conditions: PRG48 cells transfected with human GLP-1R; compound added with 250 pM GLP-1; Ca2+ response ΔF/F; read-out: Ca EC50 value
Recorded measurements of pEC50, one per entry
Please note pEC50 is a logarithmic value: minus log10 of concentration in mol/L. Answer with that number alone.

Examples from the recorded data:
Molecule	pEC50
CCCCCCNC(=O)[C@@H](CC1CCCCC1)NC(=O)Nc1cccc(NS(=O)(=O)c2ccc(C(C)(C)C)cc2)c1 [Compound 93]	7.35
Cc1ccc(S(=O)(=O)Nc2ccc(NC(=O)N[C@H](Cc3ccccc3)C(=O)NCC(C)(C)C)cc2)cc1 [Compound 4]	5.72
CCCCCCNC(=O)[C@@H](CC(C)C)NC(=O)Nc1ccc(NS(=O)(=O)c2ccc(C)cc2)cc1 [Compound 11]	6.31
CCCCCCNc1ccc(S(=O)(=O)Nc2cccc(NC(=O)N[C@H](Cc3c[nH]c4ccccc34)C(=O)NC(C)CCCC(C)C)c2)cn1 (stereo partly shown) [Compound 110]	8.36
CCCCCCCNC(=O)[C@@H](Cc1ccccc1)NC(=O)Nc1ccc(NS(=O)(=O)c2ccc(C)cc2)cc1 [Compound 6]	6.89
CCCCCCNC(=O)[C@@H](Cc1ccc(F)cc1)NC(=O)Nc1ccc(NS(=O)(=O)c2ccc(C)cc2)cc1 [Compound 17]	6.28

As a next step, examine the molecule that follows.
Asked: Using known records, supply pEC50 for CC(C)(C)OC(=O)[C@H](Cc1ccccc1)NC(=O)Nc1ccc(NS(=O)(=O)c2ccc(C(F)(F)F)cc2)cc1 [Compound 81]
Given back: 6.00
